test: Multiple escalating dose pharmacokinetic study of T-62 soft gelatin capsules (Example 12); assay type: in vivo; conditions: both sexes, human, plasma, po, 400 mg, Steady state (Day 6), 4 × 100 mg BID (oral dosage form 4), healthy adults; arithmetic mean (SD); n = 9

{"columns": ["line_notation", "Cmax (ng/mL)"],
 "data": [
  ["Nc1sc2c(c1C(=O)c1ccc(Cl)cc1)CCCC2", 179]
]}

###

test: Single escalating dose, age and food-effect pharmacokinetic study of T-62 soft gelatin capsules (Example 11); assay type: in vivo; conditions: human, plasma, po, 400 mg, Part C, Fasted, young healthy subjects; single oral dose 4 × 100 mg (oral dosage form 4); arithmetic mean (SD); n = 14

{"columns": ["compound", "Cmax, ng/mL"],
 "data": [
  ["Nc1sc2c(c1C(=O)c1ccc(Cl)cc1)CCCC2 [T-62]", 95.8]
]}

###

assay: Multiple escalating dose pharmacokinetic study of T-62 soft gelatin capsules (Example 12); type: in vivo; settings: both sexes, human, plasma; Day 1, single dose 100 mg (oral dosage form 4), healthy adults; median; n = 8

{"columns": ["line_notation", "display_unit", "Tmax"],
 "data": [
  ["Nc1sc2c(c1C(=O)c1ccc(Cl)cc1)CCCC2", "h", 1]
]}

###

test: Multiple escalating dose pharmacokinetic study of T-62 soft gelatin capsules (Example 12); type: in vivo; conditions: both sexes, human, plasma, po, 200 mg, Day 1, single dose 2 × 100 mg (oral dosage form 4), healthy adults; arithmetic mean (SD); n = 9

{"columns": ["molecule", "Cmax (ng/mL)"],
 "data": [
  ["Nc1sc2c(c1C(=O)c1ccc(Cl)cc1)CCCC2 [T-62]", 60.7]
]}

###

assay: Single escalating dose, age and food-effect pharmacokinetic study of T-62 soft gelatin capsules (Example 11); type: in vivo; conditions: human, plasma, po, 400 mg, Part C, Fasted, young healthy subjects; single oral dose 4 × 100 mg (oral dosage form 4); arithmetic mean (SD); n = 14; read-out: AUC0-48

{"columns": ["line_notation", "AUC(0-t) / ng·h/mL"],
 "data": [
  ["Nc1sc2c(c1C(=O)c1ccc(Cl)cc1)CCCC2", 533]
]}

###

assay: Single escalating dose, age and food-effect pharmacokinetic study of T-62 soft gelatin capsules (Example 11); type: in vivo; settings: human, plasma, po, 1000 mg, Part A, young healthy subjects, fasted; single oral dose 10 × 100 mg (oral dosage form 4); arithmetic mean (SD); n = 9

{"columns": ["line_notation", "Cmax / ng/mL"],
 "data": [
  ["Nc1sc2c(c1C(=O)c1ccc(Cl)cc1)CCCC2", 213]
]}
